system: PABPC1 PABC; format: binding, human; details: DMS-BM library, bait PABPC1 PABC, prey ATXN2, peptide TLNPNAKEFNPRSFSQ; F = wild type, row aa = residue at this position
The entries below are paired with their reported DMS-derived PSSM value, position F14.

seq: TLNPNAKEFNPRSFSQ F14Q (TLNPNAKEFNPRSQSQ)
DMS-derived PSSM value, position F14: 0.1174

seq: TLNPNAKEFNPRSFSQ F14T (TLNPNAKEFNPRSTSQ)
DMS-derived PSSM value, position F14: 0.006633

seq: TLNPNAKEFNPRSFSQ F14A (TLNPNAKEFNPRSASQ)
DMS-derived PSSM value, position F14: 0.01754

seq: TLNPNAKEFNPRSFSQ F14P (TLNPNAKEFNPRSPSQ)
DMS-derived PSSM value, position F14: 0.06984

seq: TLNPNAKEFNPRSFSQ F14G (TLNPNAKEFNPRSGSQ)
DMS-derived PSSM value, position F14: 0.005512

====

tested on: PABPC1 PABC; assay type: binding, human; conditions: DMS-BM library, bait PABPC1 PABC, prey ATXN2, TLNPNAKEFNPRSF(averaged) over the two overlapping peptides; N = wild type, row aa = residue at this position
value.kind: DMS-derived PSSM value (averaged), position N3

substance: TLNPNAKEFNPRSF(averaged) N3H (TLHPNAKEFNPRSF)
system.name: PABPC1 PABC
value: 0
--
substance: TLNPNAKEFNPRSF(averaged) N3Q (TLQPNAKEFNPRSF)
system.name: PABPC1 PABC
value: 0.0275
--
substance: TLNPNAKEFNPRSF(averaged) N3G (TLGPNAKEFNPRSF)
system.name: PABPC1 PABC
value: 0
--
substance: TLNPNAKEFNPRSF(averaged) N3M (TLMPNAKEFNPRSF)
system.name: PABPC1 PABC
value: 0
--
substance: TLNPNAKEFNPRSF(averaged) N3D (TLDPNAKEFNPRSF)
system.name: PABPC1 PABC
value: 0.0826
--
substance: TLNPNAKEFNPRSF(averaged) N3I (TLIPNAKEFNPRSF)
system.name: PABPC1 PABC
value: 0
--
substance: TLNPNAKEFNPRSF(averaged) N3S (TLSPNAKEFNPRSF)
system.name: PABPC1 PABC
value: 0.2635

====

test system: PABPC1 PABC; format: binding, human; settings: DMS-BM library, bait PABPC1 PABC, prey ATXN2, TLNPNAKEFNPRSF(averaged) over the two overlapping peptides; T = wild type, row aa = residue at this position
I would appreciate it if you labelled entries rule met when DMS-derived PSSM value (averaged), position T1 is 0.04 or higher, otherwise rule not met.

substance: TLNPNAKEFNPRSF(averaged) T1Y (YLNPNAKEFNPRSF)
system.name: PABPC1 PABC
assigned.label: rule met
--
substance: TLNPNAKEFNPRSF
system.name: PABPC1 PABC
assigned.label: rule met
--
substance: TLNPNAKEFNPRSF(averaged) T1S (SLNPNAKEFNPRSF)
system.name: PABPC1 PABC
assigned.label: rule not met
--
substance: TLNPNAKEFNPRSF(averaged) T1I (ILNPNAKEFNPRSF)
system.name: PABPC1 PABC
assigned.label: rule met
--
substance: TLNPNAKEFNPRSF(averaged) T1R (RLNPNAKEFNPRSF)
system.name: PABPC1 PABC
assigned.label: rule met

====

# Lookup of reported IC50 keyed by entry
target: G3BP1 NTF2 (Homo sapiens, UniProt Q13283); assay: biochemical; assay type: binding
Sequence (Q13283 1-139): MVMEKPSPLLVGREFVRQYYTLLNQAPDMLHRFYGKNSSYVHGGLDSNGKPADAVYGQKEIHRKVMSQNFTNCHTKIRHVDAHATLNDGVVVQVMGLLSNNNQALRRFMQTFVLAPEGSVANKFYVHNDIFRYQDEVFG

substance: Ac-APLITFGGPSDSTGSY-NH2 [N R14L]
result.unit: µM
IC50: 11
//
substance: Ac-DPRITFGGPSDSTGSY-NH2 [N A12D]
result.unit: µM
IC50: 9.9
//
substance: Ac-APRITFGGFSDSTGSY-NH2 [N P20F]
result.unit: µM
IC50: 44
//
substance: Ac-APRITFGAPSDSTGSY-NH2 [N G19A]
result.unit: µM
IC50: 5.2
//
substance: Ac-APRIEFGGPSDSTGSY-NH2 [N T15E]
result.unit: µM
IC50: 49
//
substance: Ac-AERITFGGPSDSTGSY-NH2 [N P13E]
result.unit: µM
IC50: 22
//
substance: Ac-APRITFGGPYDSTGSY-NH2 [N S21Y]
result.unit: µM
IC50: 16

====

Some sequences, each annotated with its measured DMS-derived PSSM value, position L4.
test system: PABPC1 PABC; format: binding, human; settings: DMS-BM library, bait PABPC1 PABC, prey ATXN2, peptide KSTLNPNAKEFNPRSF; L = wild type, row aa = residue at this position

seq: KSTLNPNAKEFNPRSF L4K (KSTKNPNAKEFNPRSF)
system.name: PABPC1 PABC
DMS-derived PSSM value, position L4: 0

seq: KSTLNPNAKEFNPRSF L4G (KSTGNPNAKEFNPRSF)
system.name: PABPC1 PABC
DMS-derived PSSM value, position L4: 0

seq: KSTLNPNAKEFNPRSF L4I (KSTINPNAKEFNPRSF)
system.name: PABPC1 PABC
DMS-derived PSSM value, position L4: 0

seq: KSTLNPNAKEFNPRSF L4M (KSTMNPNAKEFNPRSF)
system.name: PABPC1 PABC
DMS-derived PSSM value, position L4: 0.3054

seq: KSTLNPNAKEFNPRSF L4E (KSTENPNAKEFNPRSF)
system.name: PABPC1 PABC
DMS-derived PSSM value, position L4: 0

seq: KSTLNPNAKEFNPRSF L4V (KSTVNPNAKEFNPRSF)
system.name: PABPC1 PABC
DMS-derived PSSM value, position L4: 0.01089

seq: KSTLNPNAKEFNPRSF L4W (KSTWNPNAKEFNPRSF)
system.name: PABPC1 PABC
DMS-derived PSSM value, position L4: 0

====

test system: PABPC1 PABC; type: binding, human; settings: DMS-BM library, bait PABPC1 PABC, prey ATXN2, peptide KSTLNPNAKEFNPRSF; S = wild type, row aa = residue at this position
So basically: DMS-derived PSSM value, position S2 at 0.04 or higher? That is satisfied. Lower than 0.04? That is not satisfied.

seq: KSTLNPNAKEFNPRSF S2D (KDTLNPNAKEFNPRSF)
system.name: PABPC1 PABC
assigned.label: not satisfied

seq: KSTLNPNAKEFNPRSF
system.name: PABPC1 PABC
assigned.label: not satisfied

seq: KSTLNPNAKEFNPRSF S2K (KKTLNPNAKEFNPRSF)
system.name: PABPC1 PABC
assigned.label: not satisfied

seq: KSTLNPNAKEFNPRSF S2M (KMTLNPNAKEFNPRSF)
system.name: PABPC1 PABC
assigned.label: satisfied

====

target: TLN1 PTB (Homo sapiens); assay: biochemical; format: binding
Sequence (Q9Y490 309-401): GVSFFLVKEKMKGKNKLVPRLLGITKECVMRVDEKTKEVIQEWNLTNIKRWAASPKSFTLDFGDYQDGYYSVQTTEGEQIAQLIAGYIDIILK
pIC50: −log10 of the molar value.
value.kind: pIC50

substance: Ac-LADLIFTDSKLYIPLE-NH2 [TPTE2 wt]
value: 4.82

====

Consider the following sequences and their measured DMS PSSM value, T (position 15) readings.
test system: G3BP1 NFT2; type: binding, human; conditions: library DMS-CoV; bait G3BP1 NFT2; prey N; peptide RNAPRITFGGPSDSTG; listed as aa = residue placed at this position; column sums to 1
value.kind: DMS PSSM value, T (position 15)

seq: RNAPRITFGGPSDSTG T15R (RNAPRITFGGPSDSRG)
value: 0

seq: RNAPRITFGGPSDSTG T15W (RNAPRITFGGPSDSWG)
value: 0

seq: RNAPRITFGGPSDSTG T15V (RNAPRITFGGPSDSVG)
value: 0

seq: RNAPRITFGGPSDSTG T15N (RNAPRITFGGPSDSNG)
value: 0

seq: RNAPRITFGGPSDSTG T15M (RNAPRITFGGPSDSMG)
value: 0

seq: RNAPRITFGGPSDSTG
value: 0

seq: RNAPRITFGGPSDSTG T15L (RNAPRITFGGPSDSLG)
value: 0

seq: RNAPRITFGGPSDSTG T15S (RNAPRITFGGPSDSSG)
value: 0

====

test system: G3BP1 NFT2; type: binding, human; conditions: library DMS-CoV; bait G3BP1 NFT2; prey N; peptide APRITFGGPSDSTGSN; listed as aa = residue placed at this position; column sums to 1
# strict inequality: DMS PSSM value, G (position 8) < 0.0007 yields Y, everything else yields N

seq: APRITFGGPSDSTGSN G8R (APRITFGRPSDSTGSN)
assigned.label: Y

seq: APRITFGGPSDSTGSN G8T (APRITFGTPSDSTGSN)
assigned.label: N

seq: APRITFGGPSDSTGSN G8Q (APRITFGQPSDSTGSN)
assigned.label: Y

seq: APRITFGGPSDSTGSN G8S (APRITFGSPSDSTGSN)
assigned.label: N

seq: APRITFGGPSDSTGSN G8E (APRITFGEPSDSTGSN)
assigned.label: N

seq: APRITFGGPSDSTGSN G8L (APRITFGLPSDSTGSN)
assigned.label: Y
